I'd appreciate it if you could supply IC50 values for the items below.
- STUDY_SYSTEM: recombinant human Myt1 (full length PKMYT1) (Homo sapiens (Human), UniProt Q99640)
- Sequence (Q99640 whole entry): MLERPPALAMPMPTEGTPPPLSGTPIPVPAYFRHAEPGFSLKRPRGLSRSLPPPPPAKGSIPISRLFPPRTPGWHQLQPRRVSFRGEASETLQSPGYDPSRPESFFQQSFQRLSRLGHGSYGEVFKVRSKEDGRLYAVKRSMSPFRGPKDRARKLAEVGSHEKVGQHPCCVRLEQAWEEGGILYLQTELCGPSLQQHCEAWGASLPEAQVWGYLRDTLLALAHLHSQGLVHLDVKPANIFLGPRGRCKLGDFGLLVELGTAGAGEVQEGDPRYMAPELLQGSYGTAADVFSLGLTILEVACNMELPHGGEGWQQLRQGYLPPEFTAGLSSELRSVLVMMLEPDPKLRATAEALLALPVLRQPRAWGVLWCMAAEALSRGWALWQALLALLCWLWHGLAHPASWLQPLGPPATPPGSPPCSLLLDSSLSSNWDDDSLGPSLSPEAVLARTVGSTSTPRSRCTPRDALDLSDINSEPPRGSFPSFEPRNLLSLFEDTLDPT
- ASSAY_NAME: Recombinant human Myt1 kinase assay (ADP-Glo)
- Assay type: biochemical
- EXPERIMENTAL_SETUP: 10 μM ATP
Value expressed in µM; do not type the unit.

IC50 in this record for COCCOc1cccc(-c2cc(-c3c(C)ccc4[nH]ncc34)c(N)c(C(N)=O)n2)n1 (atropisomer, axis not shown) [Compound 270] : 1.16

IC50 in this record for Cc1ccc(O)cc1-c1nc(-c2cccc(Cl)c2)nc(C(N)=O)c1N [Compound 29] : 0.025

IC50 in this record for Cc1ccc(O)c(C)c1-c1cc(-c2cccc(C(N)=O)c2)nc(C(N)=O)c1N [Compound 51] : 0.008

IC50 in this record for Cc1ccc(O)cc1-c1nc(-c2ccc(Cl)cc2)nc(C(N)=O)c1N [Compound 18] : 0.028

IC50 in this record for Cc1ccc2[nH]ncc2c1-c1nc(-c2cccc(CN(C)C)c2)nc(C(N)=O)c1N [Compound 291] : 0.025

IC50 in this record for Cc1ccc2[nH]ncc2c1-c1nc(-c2cc(F)ccc2NC(=O)C2(C)CC2)nc(C(N)=O)c1N [Compound 447] : 0.003

IC50 in this record for Cc1ccc2[nH]ncc2c1-c1nc(-c2ccccc2NC(C)C(F)(F)F)cc(C(N)=O)c1N (stereo not shown) [Compound 406] : 0.005

IC50 in this record for Cc1ccc2[nH]ncc2c1-c1nc(-c2cc(F)c(F)cc2NC(=O)C2(C(F)(F)F)CC2)nc(C(N)=O)c1N [Compound 471] : 0.016

IC50 in this record for Cc1ccc2[nH]ncc2c1-c1nc(-c2ccccc2NC(=O)C(C)(C)C(F)(F)F)nc(C(N)=O)c1N [Compound 402] : 0.006

IC50 in this record for Cc1ccc(O)cc1-c1cc(C(N)=O)nc2ccccc12 [Compound 74] : 2.88

IC50 in this record for CCC(Nc1cccc(-c2cc(-c3c(C)ccc4[nH]ncc34)c(N)c(C(N)=O)n2)n1)c1ccccc1 (stereo not shown) [Compound 331] : 0.054

IC50 in this record for CC(=O)c1ccc(-c2nc(C(N)=O)c(N)c(-c3c(C)ccc4[nH]ncc34)n2)cc1 [Compound 128] : 0.057

IC50 in this record for Cc1ccc2[nH]ncc2c1-c1nc(-c2ccccc2NC(=O)C2(C)CC2)nc(C(N)=O)c1N [Compound 401] : 0.005

IC50 in this record for COc1ccc(-c2cc(-c3c(C)ccc(O)c3C)c(N)c(C(N)=O)n2)nc1 [Compound 61] : 0.002

IC50 in this record for CCOC(=O)COc1cccc(-c2nc(C(N)=O)c(N)c(-c3c(C)ccc4[nH]ncc34)n2)c1 [Compound 293] : 0.016
